- TESTED_SYSTEM: human dopamine D2L receptors (long isoform) (Homo sapiens, UniProt P14416)
- Construct: expressed in transfected cells; host or cells: HEK-293
- Sequence (P14416 whole entry, canonical isoform): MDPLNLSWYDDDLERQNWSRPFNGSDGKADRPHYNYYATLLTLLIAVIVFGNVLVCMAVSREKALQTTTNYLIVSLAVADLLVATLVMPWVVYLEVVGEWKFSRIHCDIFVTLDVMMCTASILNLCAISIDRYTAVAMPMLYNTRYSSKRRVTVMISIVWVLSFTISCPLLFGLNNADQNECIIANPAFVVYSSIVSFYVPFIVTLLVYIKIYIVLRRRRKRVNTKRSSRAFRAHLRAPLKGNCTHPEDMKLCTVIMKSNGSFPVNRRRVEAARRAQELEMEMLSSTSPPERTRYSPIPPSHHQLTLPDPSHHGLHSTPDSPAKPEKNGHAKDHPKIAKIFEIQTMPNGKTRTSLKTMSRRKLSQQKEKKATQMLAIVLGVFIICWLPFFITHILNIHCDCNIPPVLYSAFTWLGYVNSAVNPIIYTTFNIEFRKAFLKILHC
- TEST_SUMMARY: Dopamine D2L receptor binding, [125I] iodospiperone displacement
- TEST_SETTINGS: selectivity ratio of receptor binding constants, D2L versus D3
EXPERIMENTAL_ENDPOINT: Ki(D2)*/Ki(D3)*

>>> print(df.to_string())
                                   molecule                   result
0  CCCNCCOc1ccc(NS(=O)(=O)c2ccc(OC(F)(F)F)cc2)c(OC)n1.Cl    + (between 10 and 50)
1  CCCNCCOc1ccc(NS(=O)(=O)c2ccc(C(C)C(F)(F)F)cc2)c(OC)n1 (stereo not shown)  ++ (between 50 and 100)
2  COc1nc(OC2CCNC2)ccc1NS(=O)(=O)c1ccc(C(C)C)cc1 (stereo not shown)    + (between 10 and 50)
3  CCCNCCOc1ccc(NS(=O)(=O)c2ccc([C@@H](C)CF)cc2)c(C)n1              ++++ (>150)
4  COc1nc(OCCN2CCCC2)ccc1NS(=O)(=O)c1ccc(CCCF)cc1    + (between 10 and 50)
5  CCCNCCOc1ccc(NS(=O)(=O)c2ccc(CCF)cc2)c(OC)n1  ++ (between 50 and 100)
6  CCCNCCOc1ccc(NS(=O)(=O)c2ccc(-c3cnco3)cc2)c(C)n1              ++++ (>150)
7  COc1nc(OCCN2CCCC2)ccc1NS(=O)(=O)c1ccc(-c2cnco2)cc1    + (between 10 and 50)

Consider now this further molecule.
[in] Supply recorded Ki(D2)*/Ki(D3)* for COc1nc(OCCN2CCCC2)ccc1NS(=O)(=O)c1ccc(C(C)C)cc1 here.
[out] + (between 10 and 50)

====

- TESTED_SYSTEM: human dopamine D2L receptors (long isoform) (Homo sapiens, UniProt P14416)
- Construct: expressed in transfected cells; host or cells: HEK-293
- TEST_SUMMARY: Dopamine D2L receptor binding, [125I] iodospiperone displacement
- TEST_SETTINGS: selectivity ratio of receptor binding constants, D2L versus D3
EXPERIMENTAL_ENDPOINT: Ki(D2)*/Ki(D3)*

In the examples that follow, each entry is paired with its recorded Ki(D2)*/Ki(D3)*.
In [3]: df
Out[3]:
                                   molecule                   result
0  CCCNCCOc1ccc(NS(=O)(=O)c2ccc(OCC(F)(F)F)cc2)c(OC)n1              ++++ (>150)
1  CCCNCCOc1ccc(NS(=O)(=O)c2ccc(CCCF)cc2)c(OC)n1  ++ (between 50 and 100)
2  CCCNCCOc1ccc(NS(=O)(=O)c2ccc([C@@H](C)CF)cc2)c(OC)n1              ++++ (>150)
3  CCCNCCOc1ccc(NS(=O)(=O)c2ccc(C(C)C)cc2)c(OC)n1  ++ (between 50 and 100)

[in] Identify Ki(D2)*/Ki(D3)* associated with the molecule CCCNCCOc1ccc(NS(=O)(=O)c2ccc(OCC(F)F)cc2)c(OC)n1
[out] ++++ (>150)

[in] Indicate its recorded Ki(D2)*/Ki(D3)*; the molecule in question is COc1nc(OCCN2CCCC2)ccc1NS(=O)(=O)c1ccc(C(C)C(F)(F)F)cc1 (stereo not drawn)
[out] + (between 10 and 50)

[in] Fill in reported Ki(D2)*/Ki(D3)* for this entry: CCCNCCOc1ccc(NS(=O)(=O)c2ccc(C(C)C)cc2)c(C)n1
[out] ++++ (>150)

[in] Item COc1nc(OCCN2CCCC2)ccc1NS(=O)(=O)c1ccc([C@@H](C)CF)cc1 : provide Ki(D2)*/Ki(D3)*
[out] ++ (between 50 and 100)

[in] State its Ki(D2)*/Ki(D3)* for this molecule: CCCNCCOc1cc(C)c(NS(=O)(=O)c2ccc([C@@H](C)CF)cc2)cn1
[out] ++ (between 50 and 100)

[in] Complete the entry with Ki(D2)*/Ki(D3)* for CCCNCCOc1ncc(NS(=O)(=O)c2ccc(OC(F)(F)F)cc2)c(OC)n1
[out] ++ (between 50 and 100)

[in] Give Ki(D2)*/Ki(D3)* for CCCNCCOc1ncc(NS(=O)(=O)c2ccc(C(C)C)cc2)c(OC)n1
[out] + (between 10 and 50)

====

This section lists pKi readings for human dopamine D3 receptors (Homo sapiens).
pKi: −log10 of the molar value.

>>> print(df.to_string())
                                   molecule                             tested_system        result
0  CCCN1CCC(Oc2ccc(NS(=O)(=O)c3ccc(C(C)C)cc3)c(C)n2)C1.O=C(O)/C=C/C(=O)O (centres unmarked)  human dopamine D3 receptors (Homo sapiens)  8.00 to 9.00
1  CCCNCCOc1ccc(NS(=O)(=O)c2ccc(CCCF)cc2)c(OC)n1  human dopamine D3 receptors (Homo sapiens)        > 9.00
2  CCCNCCOc1ccc(NS(=O)(=O)c2ccc([C@@H](C)CF)cc2)c(OC)n1  human dopamine D3 receptors (Homo sapiens)        > 9.00

[in] Look up pKi of CCCNCCOc1ccc(NS(=O)(=O)c2ccc(OCC(F)(F)F)cc2)c(OC)n1 and report it.
[out] 8.00 to 9.00

[in] Recall and state the measured pKi for COc1nc(OCCN2CCCC2)ccc1NS(=O)(=O)c1ccc(C(C)C(F)(F)F)cc1 (centres unmarked) .
[out] 8.00 to 9.00

[in] Read the entry CCCNCCOc1ncc(NS(=O)(=O)c2ccc(OC(F)(F)F)cc2)c(OC)n1 and write its reported pKi.
[out] 6.82 to 7.30

[in] Please list pKi recorded for the molecule COc1nc(OCCN2CCCC2)ccc1NS(=O)(=O)c1ccc(CCCF)cc1
[out] 7.30 to 8.00

[in] Fill in pKi for record CCCNCCOc1ccc(NS(=O)(=O)c2ccc(OC(F)(F)F)cc2)c(OC)n1.Cl
[out] 8.00 to 9.00

[in] Read the entry COc1nc(OCCN2CCCC2)ccc1NS(=O)(=O)c1ccc(C(C)C)cc1 and write its reported pKi.
[out] 8.00 to 9.00

[in] // fetch pKi given entry CCCNCCOc1ccc(NS(=O)(=O)c2ccc(-c3cnco3)cc2)c(C)n1
[out] 7.30 to 8.00

[in] Please indicate pKi recorded for CCCNCCOc1ccc(NS(=O)(=O)c2ccc(OCCF)cc2)c(OC)n1
[out] 8.00 to 9.00

====

- TESTED_SYSTEM: human dopamine D2L receptors (long isoform) (Homo sapiens)
- Construct: expressed in transfected cells; host or cells: HEK-293
- TEST_SUMMARY: Dopamine D2L receptor binding, [125I] iodospiperone displacement
- TEST_SETTINGS: selectivity ratio of receptor binding constants, D2L versus D3
EXPERIMENTAL_ENDPOINT: Ki(D2)*/Ki(D3)*

>>> print(df.to_string())
                                   compound  experimental_endpoint                   result
0  CCCNCCOc1ccc(NS(=O)(=O)c2ccc(C(C)C)cc2)cn1        Ki(D2)*/Ki(D3)*    + (between 10 and 50)
1  CCCN1CCC(Oc2ccc(NS(=O)(=O)c3ccc(C(C)C)cc3)c(C)n2)C1.O=C(O)/C=C/C(=O)O (stereo not shown)        Ki(D2)*/Ki(D3)*    + (between 10 and 50)
2  CCCN(CCC)CCOc1ccc(NS(=O)(=O)c2ccc(C(C)C)cc2)cn1        Ki(D2)*/Ki(D3)*  ++ (between 50 and 100)
3  CCCNCCOc1ccc(NS(=O)(=O)c2ccc(-c3cnco3)cc2)c(OC)n1        Ki(D2)*/Ki(D3)*              ++++ (>150)
4  CCCNCCOc1ccc(NS(=O)(=O)c2ccc(OCCF)cc2)c(OC)n1        Ki(D2)*/Ki(D3)*              ++++ (>150)

[in] Kindly indicate its recorded Ki(D2)*/Ki(D3)*. Item: CCCNCCOc1ccc(NS(=O)(=O)c2ccc(OC(F)F)cc2)c(OC)n1
[out] ++ (between 50 and 100)
